assay: chemical genetic growth profiling, strain panel (AID 1159580);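 further: tested at 20 µM; growth read once vehicle control cultures reached saturation at 30 °C; lower values mean less growth of the strain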
measurementParameters: S. cerevisiae deletion strains, growth OD, locus YML032C, strain rad52
Hit rate of the full screen: of about 5,500 compounds, about 2,000 (36%) were called active. Another 18% or so got no clear call; they are omitted. No stated cut-off is given here; in the data, active means normalized growth mostly below about 0.91 (no sharp cut-off); inconclusive means no clear call, values can overlap the other calls; inactive means mostly above about 0.92. The list shows a part of the results.
Bench note: report the call from active, inactive

Record excerpt, results attached:
Cc1cc2cc3c(C)cc(=O)oc3c(C)c2o1: active
O=c1c(-c2ccc(O)cc2)coc2cc(O)cc(O)c12: inactive
C=C1C2CC[C@@]3(C)[C@H](c4ccoc4)OC(=O)C[C@]13O[C@H]1CC(=O)C(C)(C)[C@H](C(O)C(=O)OC)[C@@]21C (stereo not given in full): inactive
C#CCOS(=O)OC1CCCCC1Oc1ccc(C(C)(C)C)cc1 (stereo not given): inactive

Would you kindly look at the next entry?
Query string: I would be grateful if you could indicate the recorded call for `COc1cc(O)c2c(=O)c(-c3ccc(O)cc3)coc2c1` .
Result string: active

The origin of these recorded values is PubChem BioAssay AID1159580.
